Assay: NCI Yeast Anticancer Drug Screen. Data for the cln2 rad14 strain (AID 165);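 further: 0% = growth equal to vehicle treated cultures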
Conditions: S. cerevisiae cln2 rad14 strain, at 5.0 µM (retest, dose inferred, filed as 0.5), stronger effect = higher value
About 79,000 compounds went through this panel and 15% of them were active in at least one assay; those are over-represented in the sample as a whole.
TEST READOUT: growth inhibition (%)
Respond with the bare value in %.

O=C(NCCCl)Sc1ccc(Cl)cc1
-67
NC(=O)C(=O)NNc1ccccc1
9
CC(=O)OC1CCC2(C)C(=CC(C3C=C4CC(OC(C)=O)CCC4(C)C4=C3C3CC5OC6(CCC(C)CO6)C(C)C5C3(C)CC4)C3=C2CCC2(C)C3CC3OC4(CCC(C)CO4)C(C)C32)C1 (stereo not given)
37
CCN(CC)CCN(C)CCc1ccc(Br)cc1
10

API: the following record is the query input.
Qu. I am curious: what growth inhibition value has been reported for COC1CCC(O)C(/C=C/[N+](=O)[O-])C1 (stereo not given) ?
Ans. 17
